Experiment: Primary fluorescence-based thiol-reactive (MSTI) qHTS assay for identification of artifact compounds. (AID 1845221); further: nearly all actives have a fitted effect of over 65% in size
Details: MSTI thiol-reactivity probe, 1 h; series mostly up to 53.8 µM
Inconclusive results are not listed. Activity calls are given as the source filed them. The call rests on the fitted dose curve; in most records, active means well fitted inhibition curve with a large enough effect; inconclusive means small, poorly fitted or top-dose-only effect; inactive means no such curve, though single readings can be large or run the other way.
Please reply with one of these outcomes: active, inactive

Solved cases (2 shown):
COc1ccc([C@@H]2N[C@H](C(=O)O)Cc3c2[nH]c2ccccc32)cc1CN1CCN(c2ccccc2F)CC1
inactive
CC(=O)N1CCN(NC(=O)c2ccc(F)cc2)CC1
inactive

## Input What did the test return for CC(=O)OCCC(C)CCC1C(C)(O)CCC2C(C)(C)CCCC21C (stereo not drawn) ?
## Output inactive

## Input What did the test return for Cc1ccc2c(c1)C=Cc1cc(C)ccc1C2c1cn(Cc2ccc(C(=O)Nc3nn[nH]n3)o2)c(=O)[nH]c1=S ?
## Output inactive

## Input What did the test return for C=C(C(=O)OC)C1CCC2(C)C(O[C@@H]3O[C@H](CO)[C@@H](O)[C@H](O)[C@H]3O)CC(=O)C(C)C2C1O (stereo partly drawn) ?
## Output active

## Input What did the test return for C=C1CCC2C(C)(C)CC(=O)CC2(C)C1CCC(C)CCOC(C)=O (stereo not drawn) ?
## Output inactive

## Input What did the test return for CC1CCC2C(C)(C)CC(C)(CO)C2(O)C1C(=O)O (stereo not drawn) ?
## Output inactive

## Input What did the test return for O=S(=O)(NC1CCNCC1)c1cc(S(=O)(=O)c2ccccc2)ccc1C(F)(F)F ?
## Output inactive

## Input What did the test return for C/C=C/C1=CC2=CC(=O)C(C)(O)C(OC(=O)c3c(C)cc(O)cc3O)C2CO1 (stereo not drawn) ?
## Output inactive

## Input What did the test return for COc1c(C(CC(C)C)OC(C)=O)ccc(Oc2c(O)cc(C)cc2/C=C/C(C)=O)c1C(=O)O (stereo not drawn) ?
## Output active

## Input What did the test return for CC1=C2C3OC(=O)C(C)C3(O)CCC2(C)CCC1=O (stereo not drawn) ?
## Output active
